Read-out: serum amyloid A (SAA), SAA1 (gene 6288)
Assay: BSK_CASM3C_SAA: BioMAP Diversity Plus: CASM3C Assay for serum amyloid A (SAA) Biomarker Activity (AID 2283049);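 further: SAA protein level quantified by ELISA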
Settings: primary human coronary artery smooth muscle cells; actives raise or lower the signal
Activity calls are given as the source filed them. How the source made its calls: active means hit-call score of the fitted dose curve at least 0.9, where 1 is the maximum; inactive means score below 0.9.
Log the outcome using a class from active, inactive

Check out these entries, answers already filled in.
c1ccc(Nc2ccc3ccccc3c2)cc1 ... inactive
O=P1(NCCCl)OCCCN1CCCl (stereo unspecified) ... inactive
N#CCCCCC#N ... inactive
COC(C)(C)CCC[C@H](C)C/C=C/C(C)=C/C(=O)OC(C)C ... inactive

Hi team, can someone confirm the assay call for CCC(C)c1cc([N+](=O)[O-])cc([N+](=O)[O-])c1OC(=O)C=C(C)C (stereo unspecified) ? active

For Cc1ccc(OP(=O)(Oc2ccc(C)cc2)Oc2ccc(C)cc2)cc1 (tested in a mixture with another compound) , what call appears in the results of this test? inactive

---

Assay: TOX21_p53_BLA_p4_viability: Viability Assessment in the Tox21 HCT-116 p53 Agonism Beta-lactamase Assay, Phase 4 (AID 2283597);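 further: hits lower the luminescence signal meaning cytotoxicity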
Results filed as inconclusive are left out. The source made the active and inactive calls. How the source made its calls: active means hit-call score of the fitted dose curve at least 0.9, where 1 is the maximum; inconclusive means response in the unintended direction; inactive means score below 0.9.
Bench note: report the call from 1 (active), 0 (inactive)

ClCc1ccccc1 ... 0
Cc1cc(C(C)(C)c2cc(C)c(O)c(C)c2)cc(C)c1O ... 1
C=CC(C)=O ... 0
N#CC(C#N)=NNc1cccc(Cl)c1 ... 1
CC(O)C(=O)[O][Hg][c]1ccccc1 (configuration not stated) ... 1

Test call for this compound, please: CCOC(=O)c1ncn2c1CN(C)C(=O)c1c(I)cccc1-2 0

Query: recorded result category for Cc1nnc2n1-c1sc(Br)cc1C(c1ccccc1Cl)=NC2 in this test 0

---

Test: ATG_E_Box_CIS: Attagene CIS-FACTORIAL HepG2 Assay for human Enhancer Box (E-box) (AID 2282936)
Details: HepG2 E-box cis-reporter transcription, actives raise or lower the signal
Activity calls are given as the source filed them. The calls were made as follows: active = hit-call score of the fitted dose curve at least 0.9, where 1 is the maximum; inactive = score below 0.9.
Can you answer with just one of these options? 1 = active, -1 = inactive

O=[N+]([O-])c1cc(C(F)(F)F)c(Cl)c([N+](=O)[O-])c1Cl ... 1
O=C1C(Cl)=C(Cl)C(=O)C(Cl)=C1Cl ... 1
COc1ccc(CO)cc1 ... -1
c1ccc2c(c1)CCCC2 ... -1
CCOP(=O)(OCC)OCC ... -1
Nc1ccccc1 ... -1
Clc1ccc(-c2ccccc2)cc1 ... -1
Oc1cc(Cl)ccc1Cl ... -1

Tell me the assay call for CCc1cc(C)cc(CC)c1-c1c(OC(=O)C(C)(C)C)n2n(c1=O)CCOCC2 please. -1

Write down the call the test reported for this compound. Item: O=C1Nc2ccc(Cl)cc2C(c2ccccc2)=NC1O (stereo not given) -1

---

Experiment: BSK_3C_SRB: Viability Assessment in the BioMAP Diversity Plus: 3C Assay (AID 2283023);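 further: cells read 24 h after compound dosing; fitted both ways against DMSO so a hit may be signal rise or drop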
Conditions: primary human endothelial cells (HUVEC)
Activity calls are given as the source filed them. Rule for the calls: active = hit-call score of the fitted dose curve at least 0.9, where 1 is the maximum; inactive = score below 0.9.
Returns: one label drawn from 1.0 for active, 0.0 for inactive

A selection of reference data follows.
Nc1ccc(-c2ccc(N)c(N)c2)cc1N ... 0.0
COCC(=O)N(c1c(C)cccc1C)N1CCOC1=O ... 0.0
Oc1cc(Cl)ccc1Cl ... 0.0

Hi, do you know how Clc1ccc(-c2ccccc2)cc1 came out in this test? 1.0

# fetch the recorded call for c1ccc(Nc2ccc3ccccc3c2)cc1 here 1.0

Please share the test call associated with CCCOC(=O)c1ccccc1C(=O)OCCC . 0.0

Called result for CNC(=O)Oc1cc(C)c(SC)c(C)c1 1.0
